experimental system: CDK2/CycE (Homo sapiens)
Construct: GST; purchased Proquinase Company, Freiburg; host or cells: baculovirus-infected insect cells (Sf9)
test protocol: CDK2/CycE Kinase Assay
Format: biochemical
measurement setup: read-out: Inhibition IC50 CDK2/CycE
Please go through the items and note down their IC50.

**Q:** Field request: IC50 | item: CC[C@@H](CO)Nc1nc(Nc2ccc(S(N)(=O)=O)nc2)ncc1Br [Example 1.15]
**A:** 13 nM

**Q:** State the recorded IC50 for this entry: CCC(CO)Sc1nc(Nc2ccc(S(N)(=O)=O)nc2)ncc1Br (stereo not drawn) [Example 4.2]
**A:** < 10 nM

**Q:** I have this molecule here, NS(=O)(=O)c1ccc(Nc2ncc(Br)c(NCC3CC3)n2)cn1 [Example 1.19] , and I need its recorded IC50.
**A:** 12 nM

**Q:** What value of IC50 has been recorded for this entry: C[C@H](O)[C@H](C)Nc1nc(Nc2ccc(S(N)(=O)=O)nc2)ncc1Br [Example 3.5]
**A:** < 10 nM

**Q:** State the recorded IC50 for this entry: COC[C@H](C)Nc1nc(Nc2ccc(S(N)(=O)=O)nc2)ncc1Br [Example 1.16]
**A:** 36 nM

**Q:** Please report the recorded IC50 for CCC(Sc1nc(Nc2ccc(S(N)(=O)=O)nc2)ncc1Br)C(C)O (stereo not drawn) [Example 4.6] .
**A:** 74 nM

---

So I've got a bunch of compounds here, and I need their IC50 values.
experimental system: CDK2/CycE (Homo sapiens)
Construct: GST; purchased Proquinase Company, Freiburg; host or cells: baculovirus-infected insect cells (Sf9)
test protocol: CDK2/CycE Kinase Assay
Type: biochemical
measurement setup: read-out: Inhibition IC50 CDK2/CycE

**Q:** What does the record list as IC50 for CC(O)C(C)Sc1nc(Nc2ccc(S(N)(=O)=O)nc2)ncc1Br (stereo not drawn) [Example 4.3] ?
**A:** 0.034 µM

**Q:** Which IC50 reading was recorded for the compound CC[C@H](CO)Nc1nc(Nc2ccc(S(N)(=O)=O)nc2)ncc1Br [Example 1.17] ?
**A:** 0.007 µM

**Q:** I have this compound here, C[C@H](CO)Nc1nc(Nc2ccc(S(=O)(=O)NCCO)nc2)ncc1Br [Example 1.20] , and I need its recorded IC50.
**A:** 0.013 µM
